Hello, the source for this data is patent US20220274979A1, in case you need it.

Target: hSOS1 (hSOS1-mediated nucleotide exchange of hK-RasG12C) (Homo sapiens, UniProt Q07889)
Sequence (Q07889 with tags, fused parts or gaps): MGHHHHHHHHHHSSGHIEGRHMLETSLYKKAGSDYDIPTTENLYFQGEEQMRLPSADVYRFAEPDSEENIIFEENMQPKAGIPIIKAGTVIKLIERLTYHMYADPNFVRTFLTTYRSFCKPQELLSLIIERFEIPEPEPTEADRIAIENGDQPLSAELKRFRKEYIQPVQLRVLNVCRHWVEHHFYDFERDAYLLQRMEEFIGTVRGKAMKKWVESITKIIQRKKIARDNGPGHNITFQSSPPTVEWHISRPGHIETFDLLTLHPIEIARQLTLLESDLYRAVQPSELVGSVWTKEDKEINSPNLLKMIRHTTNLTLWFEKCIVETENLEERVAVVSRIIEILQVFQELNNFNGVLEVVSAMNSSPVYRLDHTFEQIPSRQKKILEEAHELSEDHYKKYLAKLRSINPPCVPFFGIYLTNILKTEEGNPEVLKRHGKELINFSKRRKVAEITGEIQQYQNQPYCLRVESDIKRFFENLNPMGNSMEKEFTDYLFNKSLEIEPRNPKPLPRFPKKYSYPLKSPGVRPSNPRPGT
Measure Name: pIC50
// returns pIC50 (minus log10 of molar concentration), number only

Some solved cases for reference:
[
  {
    "Compound": "Cc1nc(N[C@H](C)c2cccc(Br)c2)c2cc(N3CCN(Cc4cccnc4)CC3)ncc2n1 [Example 43]",
    "pIC50": 6.42
  },
  {
    "Compound": "Cc1nc(NC(C)c2ccc(-c3ccccc3CN(C)C)s2)c2cc(N3CC(NC(=O)N4CCS(=O)(=O)CC4)C3)ncc2n1 (stereo not shown) [Example 100]",
    "pIC50": 6.99
  },
  {
    "Compound": "Cc1nc(N[C@H](C)c2cccc(Br)c2)c2nc(N3CCOCC3)ncc2n1 [Example 22]",
    "pIC50": 5.71
  }
]

We now examine a further compound.
Request the reported pIC50 associated with Cc1nc(N[C@H](C)c2ccc(F)cc2)c2cc(OC(C)C)ncc2n1 [Example 15] 5.72

* * *

The reader will find reported IC50 values listed item by item below.
Target: hK-RasG12C - hSOS1 interaction (Homo sapiens, UniProt Q07889)
Construct: hSOS1 (amino acid 564-1049); made in house; host or cells: E. coli BL21 (DE3)
Experiment: Biochemical Assay 1: hK-RasG12C interaction assay with hSOS1 (HTRF)
Assay type: binding
Settings: values expressed as IC50
Enter your answer as a number in nM; do not include the unit.

Some solved cases for reference:
[
  {
    "Compound": "Cc1nc(NC(C)c2ccc(-c3ccccc3CN(C)C)s2)c2cc(N3CC(NC(=O)Cc4ccccc4)C3)ncc2n1 (stereo not drawn)",
    "Result Units": "nM",
    "IC50": 44.4
  },
  {
    "Compound": "CCOc1cc2c(N[C@H](C)c3cccc(Br)c3)nc(C)nc2cn1",
    "Result Units": "nM",
    "IC50": 491
  },
  {
    "Compound": "Cc1nc(NC(C)c2ccc(-c3ccccc3CN(C)C)s2)c2cc(NCCn3ccnc3)ncc2n1 (stereo not drawn)",
    "Result Units": "nM",
    "IC50": 39.4
  }
]

Provide the documented IC50 with hK-RasG12C - hSOS1 interaction (Homo sapiens, UniProt Q07889) as the system for Cc1nc(N[C@H](C)c2ccc(F)cc2)c2cc(OCC3CCOCC3)ncc2n1 1790

Provide the documented IC50 with hK-RasG12C - hSOS1 interaction (Homo sapiens, UniProt Q07889) as the system for Cc1nc(NC(C)c2ccc(-c3ccccc3CN(C)C)s2)c2cc(N3CC(NC(=O)C4CCCCC4)C3)ncc2n1 (stereo not drawn) 63

Provide the documented IC50 with hK-RasG12C - hSOS1 interaction (Homo sapiens, UniProt Q07889) as the system for Cc1nc(N[C@H](C)c2cccc(Br)c2)c2cc(NCCn3cccn3)ncc2n1 1210

Provide the documented IC50 with hK-RasG12C - hSOS1 interaction (Homo sapiens, UniProt Q07889) as the system for COc1cc2c(N[C@H](C)c3ccc(F)c(C4CC4)c3)nc(C)nc2cn1 5840

Provide the documented IC50 with hK-RasG12C - hSOS1 interaction (Homo sapiens, UniProt Q07889) as the system for CCOc1cc2c(N[C@H](C)c3cccc(S(C)(=O)=O)c3)nc(C)nc2cn1 633

Provide the documented IC50 with hK-RasG12C - hSOS1 interaction (Homo sapiens, UniProt Q07889) as the system for Cc1nc(NC(C)c2ccc(-c3ccccc3CN(C)C)s2)c2cc(OC3CCS(=O)(=O)CC3)ncc2n1 (stereo not drawn) 42

Provide the documented IC50 with hK-RasG12C - hSOS1 interaction (Homo sapiens, UniProt Q07889) as the system for COc1cc2c(NC(C)c3cccc4sccc34)nc(C)nc2cn1 (stereo not drawn) 355

Provide the documented IC50 with hK-RasG12C - hSOS1 interaction (Homo sapiens, UniProt Q07889) as the system for Cc1nc(NC(C)c2ccc(-c3ccccc3CN(C)C)s2)c2cc(NC3CCOCC3)ncc2n1 (stereo not drawn) 54.7

Provide the documented IC50 with hK-RasG12C - hSOS1 interaction (Homo sapiens, UniProt Q07889) as the system for COc1cc2c(NC(C)c3cccc4nn(C)cc34)nc(C)nc2cn1 (stereo not drawn) 9190

Provide the documented IC50 with hK-RasG12C - hSOS1 interaction (Homo sapiens, UniProt Q07889) as the system for Cc1nc(NC(C)c2ccc(-c3ccccc3CN(C)C)s2)c2cc(OCC3CC3)ncc2n1 (stereo not drawn) 95

Provide the documented IC50 with hK-RasG12C - hSOS1 interaction (Homo sapiens, UniProt Q07889) as the system for COc1cc2c(NC(C)c3ccc(-c4ccccc4CN(C)C)s3)nc(C)nc2cn1 (stereo not drawn) 59.5

Provide the documented IC50 with hK-RasG12C - hSOS1 interaction (Homo sapiens, UniProt Q07889) as the system for Cc1nc(NC(C)c2ccc(-c3ccccc3CN(C)C)s2)c2cc(N3CC(NC(=O)N4CCS(=O)(=O)CC4)C3)ncc2n1 (stereo not drawn) 85.8

Provide the documented IC50 with hK-RasG12C - hSOS1 interaction (Homo sapiens, UniProt Q07889) as the system for CSc1cc2c(NC(C)c3ccc(-c4ccccc4CN(C)C)s3)nc(C)nc2cn1 (stereo not drawn) 66.2

Provide the documented IC50 with hK-RasG12C - hSOS1 interaction (Homo sapiens, UniProt Q07889) as the system for CC(=O)NCCNc1cc2c(NC(C)c3ccc(-c4ccccc4CN(C)C)s3)nc(C)nc2cn1 (stereo not drawn) 32.9

Provide the documented IC50 with hK-RasG12C - hSOS1 interaction (Homo sapiens, UniProt Q07889) as the system for CCOc1cc2c(N[C@H](C)c3ccc(Br)cc3)nc(C)nc2cn1 1220

* * *

Target: hSOS1 (hSOS1-mediated loading of hK-RasG12C-GDP) (Homo sapiens, UniProt Q07889)
Construct: hSOS1 (amino acid 564-1049); made in house; host or cells: E. coli BL21 (DE3)
Assay: Biochemical Assay 3: hK-RasG12C activation assay by hSOS1 (loading with fluorescent GTP analog, HTRF)
Settings: no GTP
The reader will find reported pIC50 values listed item by item below.
// returns pIC50 (minus log10 of molar concentration), number only

Some solved cases for reference:
[
  {
    "Compound": "Cc1nc(NC(C)c2ccc(-c3ccccc3CN(C)C)s2)c2cc(NCC3CCNC(=O)C3)ncc2n1 (stereo not shown)",
    "Measure Name": "pIC50",
    "Number": 6.84
  },
  {
    "Compound": "Cc1nc(N[C@H](C)c2cccc(Br)c2)c2nc(N3CCOCC3)ncc2n1",
    "Measure Name": "pIC50",
    "Number": 4.90
  },
  {
    "Compound": "CC(=O)NCCNc1cc2c(N[C@H](C)c3cccc(Br)c3)nc(C)nc2cn1",
    "Measure Name": "pIC50",
    "Number": 5.79
  },
  {
    "Compound": "CC(=O)N(c1cccc(C(=O)NC2CN(c3cc4c(NC(C)c5ccc(-c6ccccc6CN(C)C)s5)nc(C)nc4cn3)C2)c1)C1CCN(C(=O)OC(C)(C)C)CC1 (stereo not shown)",
    "Measure Name": "pIC50",
    "Number": 6.21
  },
  {
    "Compound": "Cc1nc(NC(C)c2ccc(-c3ccccc3CN(C)C)s2)c2cc(OCCO)ncc2n1 (stereo not shown)",
    "Measure Name": "pIC50",
    "Number": 6.97
  },
  {
    "Compound": "CC(=O)N(c1cccc(C(=O)NC2CN(c3cc4c(NC(C)c5ccc(-c6ccccc6CN(C)C)s5)nc(C)nc4cn3)C2)c1)[C@@H]1CCN(C(=O)OC(C)(C)C)C1 (stereo partly shown)",
    "Measure Name": "pIC50",
    "Number": 6.26
  }
]

Request the reported pIC50 associated with COc1cc2c(N[C@H](C)c3cccc(Br)c3)nc(C)nc2cn1 5.75

Request the reported pIC50 associated with Cc1nc(NC(C)c2ccc(-c3ccccc3CN(C)C)s2)c2cc(N3CCC3)ncc2n1 (stereo not shown) 7.08

Request the reported pIC50 associated with Cc1nc(NC(C)c2ccc(-c3ccccc3CN(C)C)s2)c2cc(N3CC(NC(=O)CCCn4c(-c5ccccn5)nc(C)c4C)C3)ncc2n1 (stereo not shown) 6.64

Request the reported pIC50 associated with Cc1nc(NC(C)c2ccc(-c3ccccc3CN(C)C)s2)c2cc(OC3CCS(=N)(=O)CC3)ncc2n1 (stereo not shown) 7.07

Request the reported pIC50 associated with Cc1nc(N[C@H](C)c2cccc(Br)c2)c2cc(OCC3CC3)ncc2n1 4.82

Request the reported pIC50 associated with CCOc1cc2c(N[C@H](C)c3ccc(C#N)cc3)nc(C)nc2cn1 5.34

Request the reported pIC50 associated with Cc1nc(N[C@H](C)c2cccc(Br)c2)c2cc(NCCS(C)(=O)=O)ncc2n1 5.96
